# system: Peroxisome proliferator-activated receptor alpha (Homo sapiens, UniProt Q07869)
# Sequence (Q07869 whole entry): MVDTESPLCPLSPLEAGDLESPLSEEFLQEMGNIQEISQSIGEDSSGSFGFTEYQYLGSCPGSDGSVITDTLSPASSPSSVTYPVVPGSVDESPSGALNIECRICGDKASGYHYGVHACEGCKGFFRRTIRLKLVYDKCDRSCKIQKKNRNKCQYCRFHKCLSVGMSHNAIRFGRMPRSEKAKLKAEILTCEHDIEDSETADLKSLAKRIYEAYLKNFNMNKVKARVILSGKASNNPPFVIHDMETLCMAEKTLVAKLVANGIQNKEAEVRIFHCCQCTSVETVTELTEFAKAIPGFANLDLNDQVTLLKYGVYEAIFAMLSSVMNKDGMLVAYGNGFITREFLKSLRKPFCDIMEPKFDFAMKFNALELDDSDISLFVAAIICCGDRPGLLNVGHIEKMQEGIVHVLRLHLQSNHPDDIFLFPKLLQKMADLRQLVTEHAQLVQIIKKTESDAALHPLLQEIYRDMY
# assay-method-text: Partial agonist activity at Gal4-fused PPARalpha LBD (unknown origin) expressed in HEK293T cells after 14 to 16 hrs by dual-Glo luciferase assay
pEC50: −log10 of the molar value.
The label depends only on pEC50: met if it is at least 6, not met if it is smaller.

Please review the entries below; each comes with its answer.
CCCCCC[C@@H](Sc1nc2ccc(NS(=O)(=O)c3ccc(Cl)cc3Cl)cc2s1)C(=O)O    met
CCCCCCC(Sc1nc2ccc(NCc3ccc4ccccc4c3)cc2s1)C(=O)O (configuration not stated)    not met
CCCCCCC(Sc1nc2ccc(NCc3cc(Cl)cc(Cl)c3)cc2s1)C(=O)O (configuration not stated)    not met

Incoming: Exam item: decide whether the reported pEC50 for CCCCC(Sc1nc2ccc(NC(=O)c3ccc(C(C)(C)C)cc3)cc2s1)C(=O)O (configuration not stated) is at least 6.
Outgoing: not met

Incoming: Exam item: decide whether the reported pEC50 for CCCCCC[C@H](Sc1nc2ccc(NS(=O)(=O)c3ccc(Cl)cc3Cl)cc2s1)C(=O)O is at least 6.
Outgoing: met

Incoming: Exam item: decide whether the reported pEC50 for CCCCCCC(Sc1nc2ccc(NCc3cccc(Cl)c3)cc2s1)C(=O)O (configuration not stated) is at least 6.
Outgoing: not met

Incoming: Exam item: decide whether the reported pEC50 for CCCCCCC(Sc1nc2ccc(NS(=O)(=O)c3ccc(-c4ccccc4)cc3)cc2s1)C(=O)O (configuration not stated) is at least 6.
Outgoing: not met

====

# system: Peroxisome proliferator-activated receptor gamma (Homo sapiens)
# Sequence (P37231 whole entry, the tested form may be a part): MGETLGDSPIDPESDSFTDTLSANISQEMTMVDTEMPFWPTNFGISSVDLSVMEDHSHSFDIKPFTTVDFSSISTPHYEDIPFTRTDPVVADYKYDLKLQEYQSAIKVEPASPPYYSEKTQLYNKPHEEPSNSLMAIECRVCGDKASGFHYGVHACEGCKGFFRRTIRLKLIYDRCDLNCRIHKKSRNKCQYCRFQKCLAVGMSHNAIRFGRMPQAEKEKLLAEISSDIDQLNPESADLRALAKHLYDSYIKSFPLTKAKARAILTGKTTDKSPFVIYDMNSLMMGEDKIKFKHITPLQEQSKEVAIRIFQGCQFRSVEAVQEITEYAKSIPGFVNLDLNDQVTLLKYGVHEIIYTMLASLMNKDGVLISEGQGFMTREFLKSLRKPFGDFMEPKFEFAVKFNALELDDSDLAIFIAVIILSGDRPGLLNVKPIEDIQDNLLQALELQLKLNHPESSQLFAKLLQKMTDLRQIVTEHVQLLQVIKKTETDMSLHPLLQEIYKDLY
# assay-method-text: Partial agonist activity at Gal4-fused PPARgamma LBD (unknown origin) expressed in HEK293T cells after 14 to 16 hrs by dual-Glo luciferase assay
# Type: cell-based
Entries and their pEC50
pEC50 (log units): -log10 of the concentration in mol/L.

CCCCCCC(Sc1nc2ccc(NCc3ccc(C(C)(C)C)cc3)cc2s1)C(=O)O (centres undefined)    5.43

Incoming: Supply reported pEC50 belonging to this compound: CCCCCCC(Sc1nc2ccc(NS(=O)(=O)c3ccc(-c4ccccc4)cc3)cc2s1)C(=O)O (centres undefined)
Outgoing: 6.59

Incoming: Supply reported pEC50 belonging to this compound: CCCCCCC(Sc1nc2ccc(NC(=O)c3ccc(C(C)(C)C)cc3)cc2s1)C(=O)O (centres undefined)
Outgoing: 5.37

Incoming: Supply reported pEC50 belonging to this compound: CCCCCCC(Sc1nc2ccc(NCc3ccc(C(F)(F)F)cc3)cc2s1)C(=O)O (centres undefined)
Outgoing: 5.74
